Listing of entries alongside the reported IC50.
# measuredTarget: Factor D (Homo sapiens (Human))
# assayInfo: biochemical
# Type: biochemical
# measurementContext: read-out: IC50
Counter-ions that a name gives are not always drawn.
Kindly provide the numeric value in nM only, without the unit symbol.

Record excerpt, results attached:
NC(=O)c1nn(CC(=O)N2[C@@H]3C[C@@H]3C[C@H]2C(=O)Nc2cccc(Br)n2)c2cnccc12 [Example 728] :: 8
COC(=O)[C@@H](NC(=O)[C@@H]1C[C@H](N)CN1C(=O)Nc1cn(C(N)=O)c2ccccc12)c1ccccc1 [Example 98] :: 1850
CC(=O)c1nn(CC(=O)N2C[C@H](F)[C@@H](O)[C@H]2C(=O)NC2(c3cccc(Cl)c3F)CC2)c2cnccc12 [Example 635, formate] :: 18

Moving on to another molecule below.
Which IC50 is listed for Cc1cccnc1-c1cccc(NC(=O)[C@@H]2C[C@H]3C[C@H]3N2C(=O)Cn2nc(C(N)=O)c3ccncc32)c1F [Example 687] ?
98

* * *

# measuredTarget: Factor D (Homo sapiens (Human), UniProt P00746)
# Sequence (P00746 26-253): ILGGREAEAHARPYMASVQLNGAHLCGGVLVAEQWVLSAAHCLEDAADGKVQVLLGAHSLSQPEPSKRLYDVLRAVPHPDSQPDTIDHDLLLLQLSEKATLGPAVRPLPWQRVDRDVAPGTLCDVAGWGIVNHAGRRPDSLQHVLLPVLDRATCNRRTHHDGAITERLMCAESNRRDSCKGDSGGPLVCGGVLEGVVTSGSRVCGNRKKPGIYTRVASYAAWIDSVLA
# assayInfo: biochemical
# Assay type: biochemical
# measurementContext: read-out: IC50
Listing of entries alongside the reported IC50.
Kindly provide the numeric value in nM only, without the unit symbol.

Record excerpt, results attached:
NC(=O)n1cc(NC(=O)N2C[C@H](F)C[C@H]2C(=O)NCc2cccc(Cl)c2F)c2ccccc21 :: 7
NC(=O)n1cc(NC(=O)N2C[C@H](F)C[C@H]2C(=O)NCc2cccc(Cl)c2F)c2ccc(OC(F)F)cc21 :: 127
CC(=O)c1cn(CC(=O)N2[C@H](CNC(=O)Oc3cccc(Cl)c3F)C[C@H]3C[C@H]32)c2ccccc12 :: 5600

Which IC50 is listed for NC(=O)n1cc(NC(=O)N2C[C@H](F)C[C@H]2C(=O)NCc2cc(-c3nnn[nH]3)cc(Cl)c2F)c2ccccc21 ?
69

* * *

# measuredTarget: Factor D (Homo sapiens (Human), UniProt P00746)
# assayInfo: biochemical
# Format: biochemical
# measurementContext: read-out: IC50
measuredEndpoint: log10 IC50 (log10 of the value in nM)
Heads up, the numbers here are log10 of IC50 in nM units.

Record excerpt, results attached:
CNC(=O)n1cc(NC(=O)N2[C@@H]3C[C@@H]3C[C@H]2C(=O)N[C@H](CN(C)C)c2cccc(Cl)c2F)c2ccccc21 [Example 289] :: 2.74
NC(=O)n1cc(NC(=O)N2C[C@H](F)C[C@H]2CNS(=O)(=O)c2ccccc2F)c2ccccc21 [Example 104] :: 3.17
CC(=O)c1cn(CC(=O)N2[C@@H]3C[C@@H]3C[C@H]2C(=O)NCc2cccc(Cl)c2F)c2cc(C(=O)O)ccc12 [Example 598] :: 1.15
CN(C)CCN(C)Cc1cc(Cl)c(F)c(CNC(=O)[C@@H]2C[C@@H](F)CN2C(=O)Nc2cn(C(N)=O)c3ccccc23)c1 [Example 17] :: 3.61
NC(=O)n1cc(NC(=O)N2C[C@@H](N)C[C@H]2C(=O)N[C@@H]2C[C@H]2c2ccccc2)c2ccccc21 [Example 83] :: 3.35
NC(=O)c1nn(CC(=O)N2[C@@H]3C[C@@H]3C[C@H]2C(=O)NCc2cccc(Cl)c2F)c2ccccc12 [Example 692] :: 0.48

Which log10 IC50 is listed for CN(C)C(=O)c1cc(Cl)c(F)c(CNC(=O)[C@@H]2C[C@@H](F)CN2C(=O)Nc2cn(C(N)=O)c3ccccc23)c1 [Example 277] ?
2.80

* * *

Listing of entries alongside the reported pIC50.
# measuredTarget: Factor D (Homo sapiens (Human), UniProt P00746)
# assayInfo: biochemical
# Format: biochemical
# measurementContext: read-out: IC50
Please report pIC50 as the negative decimal logarithm of the molar concentration, giving only the number.

Record excerpt, results attached:
COCCOc1ccc2c(c1)c(NC(=O)N1C[C@H](F)C[C@H]1C(=O)NCc1cccc(Cl)c1F)cn2C(N)=O [Example 303] :: 8.10
CO[C@H]1[C@@H](C(=O)NCc2cccc(Cl)c2F)N(C(=O)Cn2nc(C(C)=O)c3cnccc32)C[C@@H]1F [Example 630] :: 7.44
COC(=O)[C@H]1C[C@@H](C(=O)NCc2cccc(Cl)c2F)N(C(=O)Nc2cn(C(N)=O)c3ccccc23)C1 [Example 200] :: 7.60

Which pIC50 is listed for NC(=O)n1cc(NC(=O)N2[C@@H]3C[C@@H]3C[C@H]2C(=O)N[C@H](CO)c2cccc(Cl)c2)c2ccccc21 [Example 320] ?
8.15

* * *

# measuredTarget: Factor D (Homo sapiens (Human))
# assayInfo: biochemical
# Type: biochemical
# measurementContext: read-out: IC50
measuredEndpoint: IC50 (nM)
Kindly provide the numeric value in nM only, without the unit symbol.

C[C@@H](NC(=O)[C@@H]1C[C@H]2C[C@H]2N1C(=O)Cn1nc(C(N)=O)c2cc(C(F)(F)F)ncc21)c1cccc(Cl)c1F [Example 699] :: 118
N#C[C@H]1C[C@@H](C(=O)Nc2cccc(OC(F)(F)F)c2)N(C(=O)Nc2cn(C(N)=O)c3ccccc23)C1 [Example 125] :: 5100

Form field - read-out: IC50; system: Factor D (Homo sapiens (Human)); submitted item: NC(=O)n1cc(NC(=O)N2C3CC3C[C@H]2C(=O)NCc2ncccc2F)c2ccccc21 (stereo partly shown) [Example 242]
200

* * *

# measuredTarget: Factor D (Homo sapiens (Human))
# assayInfo: biochemical
# Type: biochemical
# measurementContext: read-out: IC50
measuredEndpoint: pIC50
Please report pIC50 as the negative decimal logarithm of the molar concentration, giving only the number.

NC(=O)n1cc(CC(=O)N2[C@@H]3C[C@@H]3C[C@H]2C(=O)NCc2cccc(Cl)c2F)c2ccc(CC(=O)O)cc21 :: 6.33
O=C(NCc1cccc(Cl)c1F)[C@@H]1C[C@@H](F)CN1C(=O)Cn1cc(C(=O)C(F)(F)F)c2ccccc21 :: 7.85
C[C@@H](NC(=O)[C@@H]1C[C@H]2C[C@H]2N1C(=O)Cn1nc(C(N)=O)c2cc(C3CC3)ncc21)c1cccc(Cl)c1F :: 7.82
C[C@H](CNC(=O)[C@@H]1C[C@H](N)CN1C(=O)Nc1cn(C(N)=O)c2ccccc12)c1ccccc1 :: 4.95

Form field - read-out: pIC50; system: Factor D (Homo sapiens (Human)); submitted item: NC(=O)c1nn(CC(=O)N2[C@@H]3C[C@@H]3C[C@H]2C(=O)NCc2cccc(Cl)c2F)c2c[n+]([O-])ccc12
7.68

Form field - read-out: pIC50; system: Factor D (Homo sapiens (Human)); submitted item: NC(=O)n1cc(NC(=O)N2C[C@H](F)C[C@H]2CNC(=O)Cc2ccccc2)c2ccccc21
5.94

Form field - read-out: pIC50; system: Factor D (Homo sapiens (Human)); submitted item: NC(=O)n1cc(NC(=O)N2C[C@@H](N)C[C@H]2C(=O)NCCc2cc(F)cc(Cl)c2)c2ccccc21
5.94

Form field - read-out: pIC50; system: Factor D (Homo sapiens (Human)); submitted item: NC(=O)c1cn(CC(=O)N2C[C@H](F)C[C@H]2C(=O)NCc2cccc(Cl)c2F)c2ccc(O)cc12
7.15

Form field - read-out: pIC50; system: Factor D (Homo sapiens (Human)); submitted item: CC(=O)n1cc(NC(=O)N2CCC[C@H]2C(=O)Nc2cccc(OC(F)(F)F)c2)c2ccc(C#N)cc21
5.10

Form field - read-out: pIC50; system: Factor D (Homo sapiens (Human)); submitted item: NC(=O)n1cc(NC(=O)N2C[C@@H](C(F)(F)F)C[C@H]2C(=O)NCc2cccc(Cl)c2F)c2ccccc21
6.92

Form field - read-out: pIC50; system: Factor D (Homo sapiens (Human)); submitted item: NC(=O)c1nn(CC(=O)N2[C@@H]3C[C@@H]3C[C@H]2C(=O)Nc2cccc(-c3c(F)cccc3F)n2)c2cnccc12
7.01

* * *

Listing of entries alongside the reported pIC50.
# measuredTarget: Factor D (Homo sapiens (Human))
# assayInfo: biochemical
# Type: biochemical
# measurementContext: read-out: IC50
Please report pIC50 as the negative decimal logarithm of the molar concentration, giving only the number.

CC(=O)c1cn(CC(=O)N2[C@@H]3C[C@@H]3C[C@H]2C(=O)Nc2cc(Br)cc(-c3nnn[nH]3)c2)c2ccccc12 :: 6.57
C[C@@]1(F)C[C@@H](C(=O)NCc2cccc(Cl)c2F)N(C(=O)Nc2cn(C(N)=O)c3ccc(OCC(=O)O)cc23)C1 :: 8.70

Moving on to another compound below.
Which pIC50 is listed for NC(=O)n1cc(NC(=O)N2C[C@@H](N)C[C@H]2C(=O)NCc2cccc(OC(F)(F)F)c2)c2ccccc21 ?
4.66

* * *

# measuredTarget: Factor D (Homo sapiens (Human))
# assayInfo: biochemical
# Format: biochemical
# measurementContext: read-out: IC50
pIC50: −log10 of the molar value.
Please mark Yes if the recorded pIC50 is equal to or greater than 7, and No if it falls below.

NC(=O)n1cc(NC(=O)N2C3CC3C[C@H]2C(=O)NCc2cccc(Cl)c2)c2ccccc21 (some centres unmarked) [Example 183] :: Yes

Given the entry CO[C@H]1[C@@H](C(=O)NCc2cccc(Cl)c2F)N(C(=O)Cn2nc(C(C)=O)c3ccncc32)C[C@@H]1F [Example 682] , answer whether its pIC50 meets or surpasses 7.
Yes

Given the entry NCc1ccc(-c2cccc(NC(=O)[C@@H]3CCCN3C(=O)Nc3cn(C(N)=O)c4ccccc34)c2)c(F)c1 [Example 401] , answer whether its pIC50 meets or surpasses 7.
No

Given the entry NC(=O)n1cc(NC(=O)N2[C@@H]3C[C@@H]3C[C@H]2C(=O)NCc2cccc(Cl)c2F)c2cc(OCCN3CCCC3)ccc21 [Example 388] , answer whether its pIC50 meets or surpasses 7.
Yes

Given the entry NC(=O)n1cc(NC(=O)N2C[C@H](F)C[C@H]2CNS(=O)(=O)c2ccc(Cl)s2)c2ccccc21 [Example 111] , answer whether its pIC50 meets or surpasses 7.
Yes

Given the entry NC(=O)n1cc(NC(=O)N2C[C@H](F)C[C@H]2C(=O)NCc2cccc(Cl)c2)c2ccccc21 [Example 8] , answer whether its pIC50 meets or surpasses 7.
Yes

Given the entry NC(=O)n1cc(NC(=O)N2C[C@](F)(CF)C[C@H]2C(=O)NCc2cccc(Cl)c2F)c2ccccc21 [Example 241] , answer whether its pIC50 meets or surpasses 7.
No

Given the entry CC(=O)c1cn(CC(=O)N2[C@@H]3C[C@@H]3C[C@H]2C(=O)N[C@H](C)c2cccc(Cl)c2F)c2cnccc12 [Example 641] , answer whether its pIC50 meets or surpasses 7.
Yes

Given the entry NC(=O)n1cc(NC(=O)N2C[C@@H](N)C[C@H]2C(=O)NCCc2ccccc2)c2ccccc21 [Example 81] , answer whether its pIC50 meets or surpasses 7.
No
